Numbers sourced from the kinase profiling compilation of Christmann-Franck et al. (2016).

Listed next: entries and their corresponding residual activity.
# study.system: PRKCD (human)
# assay.procedure: radiometric filter-binding kinase assay, Kinase HotSpot
# run.conditions: compound 0.5 µM; ATP 10 µM
measured.endpoint: residual activity (%)

>>> endpoint_value("CCN1/C(=C/C(C)=O)Sc2ccc(OC)cc21")
88.2
>>> endpoint_value("O=C(Nc1ccc(Cl)cc1)c1ccccc1NCc1ccncc1")
84.7
>>> endpoint_value("Nc1nc(Nc2ccc(S(N)(=O)=O)cc2)nn1C(=S)Nc1c(F)cccc1F")
22.2
>>> endpoint_value("COc1cc2ncnc(Nc3ccc(F)c(Cl)c3)c2cc1OCCCN1CCOCC1")
106
>>> endpoint_value("Cc1cc2ncc(-c3ccccc3)nc2cc1C")
92.3

* * *

# study.system: CLK2 (human) (UniProt P49760)
# Sequence (P49760 whole entry, looked up): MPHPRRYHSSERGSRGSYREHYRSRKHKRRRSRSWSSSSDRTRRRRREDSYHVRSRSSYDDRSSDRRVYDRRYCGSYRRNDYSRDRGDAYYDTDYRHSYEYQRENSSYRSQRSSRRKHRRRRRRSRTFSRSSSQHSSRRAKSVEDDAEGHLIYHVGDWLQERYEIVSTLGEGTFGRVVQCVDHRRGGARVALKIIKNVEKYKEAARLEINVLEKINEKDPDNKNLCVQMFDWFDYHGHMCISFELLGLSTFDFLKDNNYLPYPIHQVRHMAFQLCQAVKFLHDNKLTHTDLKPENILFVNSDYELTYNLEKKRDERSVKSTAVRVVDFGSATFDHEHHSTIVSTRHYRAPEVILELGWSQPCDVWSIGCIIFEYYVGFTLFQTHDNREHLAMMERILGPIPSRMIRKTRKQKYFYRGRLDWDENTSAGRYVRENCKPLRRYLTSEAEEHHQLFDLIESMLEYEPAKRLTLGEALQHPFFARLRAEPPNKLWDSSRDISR
# assay.procedure: radiometric filter-binding kinase assay, Kinase HotSpot
# run.conditions: compound 0.5 µM; ATP 10 µM
measured.endpoint: residual activity (%)

>>> endpoint_value("O=C1Cc2c([nH]c3ccc([N+](=O)[O-])cc23)-c2ccccc2N1")
97.7
>>> endpoint_value("CS(=O)c1ccc(-c2nc(-c3ccc(F)cc3)c(-c3ccncc3)[nH]2)cc1 (stereo unspecified)")
108
>>> endpoint_value("CCN1/C(=C/C(C)=O)Sc2ccc(OC)cc21")
25.9
>>> endpoint_value("CC(C)n1cnc2c(Nc3cccc(Cl)c3)nc(NCCO)nc21")
25
>>> endpoint_value("O=C1Nc2cc(Br)ccc2/C1=C1/Nc2ccccc2/C1=N\\O")
91.9
>>> endpoint_value("O=c1cc(N2CCNCC2)oc2c(-c3ccccc3)cccc12")
100

* * *

# study.system: UniProt P35626
# Sequence (P35626 whole entry, looked up): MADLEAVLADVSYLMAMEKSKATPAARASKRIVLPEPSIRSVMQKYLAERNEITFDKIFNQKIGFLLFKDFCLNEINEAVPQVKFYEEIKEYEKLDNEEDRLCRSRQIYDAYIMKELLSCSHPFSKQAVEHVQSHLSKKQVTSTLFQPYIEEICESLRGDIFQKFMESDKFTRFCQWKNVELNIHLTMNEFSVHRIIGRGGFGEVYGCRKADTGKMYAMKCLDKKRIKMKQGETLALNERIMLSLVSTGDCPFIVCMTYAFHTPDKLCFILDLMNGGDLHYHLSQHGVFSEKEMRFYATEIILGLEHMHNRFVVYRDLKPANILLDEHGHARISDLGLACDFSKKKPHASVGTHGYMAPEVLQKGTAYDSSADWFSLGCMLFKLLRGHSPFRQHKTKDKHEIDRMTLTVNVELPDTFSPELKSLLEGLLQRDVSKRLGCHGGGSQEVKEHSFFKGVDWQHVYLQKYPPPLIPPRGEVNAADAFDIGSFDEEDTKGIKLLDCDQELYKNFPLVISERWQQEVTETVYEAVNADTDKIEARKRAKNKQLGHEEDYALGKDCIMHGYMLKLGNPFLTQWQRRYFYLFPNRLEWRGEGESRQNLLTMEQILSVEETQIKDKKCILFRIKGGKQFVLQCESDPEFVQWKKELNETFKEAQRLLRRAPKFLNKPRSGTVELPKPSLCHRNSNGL
# assay.procedure: radiometric filter-binding kinase assay, Kinase HotSpot
# run.conditions: compound 0.5 µM; ATP 10 µM
measured.endpoint: residual activity (%)

>>> endpoint_value("Nc1n[nH]c2nnc(-c3c(-c4ccccc4)nn4ccccc34)cc12")
101
>>> endpoint_value("CSc1nc(-c2ccc(F)cc2)c(-c2ccnc(NC(C)c3ccccc3)c2)[nH]1 (configuration not stated)")
96.4
>>> endpoint_value("CC(C)(C)c1nc2c3ccc(F)cc3c3c(=O)[nH]ccc3c2[nH]1")
104
>>> endpoint_value("Oc1ccc(-c2nc(-c3ccc(F)cc3)c(-c3ccncc3)[nH]2)cc1")
99.3
>>> endpoint_value("Nc1nc(Nc2ccc(S(N)(=O)=O)cc2)nn1C(=O)c1c(F)cccc1F")
87.2
>>> endpoint_value("O=C(NC(NC(=S)Nc1ccc(F)c([N+](=O)[O-])c1)C(Cl)(Cl)Cl)C(c1ccccc1)c1ccccc1 (configuration not stated)")
98.3
>>> endpoint_value("Nc1nc(Nc2ccc(S(N)(=O)=O)cc2)nn1C(=S)Nc1c(F)cccc1F")
88
>>> endpoint_value("O=C1Nc2cc(Br)ccc2/C1=C1/Nc2ccccc2/C1=N\\O")
104
>>> endpoint_value("CCCNC(=O)Nc1ccc(Oc2ncnc3cc(OC)c(OC)cc23)cc1Cl")
96.6
>>> endpoint_value("O=C(Nc1ccc(Cl)cc1)c1ccccc1NCc1ccncc1")
96.1
>>> endpoint_value("O=C1Cc2c([nH]c3ccc([N+](=O)[O-])cc23)-c2ccccc2N1")
88.9
>>> endpoint_value("Clc1ccc(Nc2nnc(Cc3ccncc3)c3ccccc23)cc1")
92.9
>>> endpoint_value("CS(=O)c1ccc(-c2nc(-c3ccc(F)cc3)c(-c3ccncc3)[nH]2)cc1 (configuration not stated)")
98.2
>>> endpoint_value("COc1cc2ncnc(Nc3ccc(F)c(Cl)c3)c2cc1OCCCN1CCOCC1")
97.9
>>> endpoint_value("COc1cc2nccc(Oc3ccc(NC(=S)NC(=O)c4ccccc4C)cc3)c2cc1OC")
94.9
>>> endpoint_value("COc1ccc(-c2cnc3c(-c4ccsc4)cnn3c2)cc1")
97.8
>>> endpoint_value("CCN1/C(=C/C(C)=O)Sc2ccc(OC)cc21")
82.9
>>> endpoint_value("O=c1cc(-c2cccc3c2Sc2ccccc2S3)oc(N2CCOCC2)c1")
100
>>> endpoint_value("O=c1cc(N2CCNCC2)oc2c(-c3ccccc3)cccc12")
97.4
>>> endpoint_value("O=C1Nc2ccccc2/C1=C\\c1c(Cl)[nH]c2ccccc12")
90.1
>>> endpoint_value("Cc1cc2ncc(-c3ccccc3)nc2cc1C")
87.4
>>> endpoint_value("NC(=O)c1ccc(N(C(N)=O)c2c(F)cccc2F)nc1-c1ccc(F)cc1F")
98.1
